# tested_on: H1047R PIK3CA enzyme (Homo sapiens, UniProt P42336, H1047R)
# Sequence (P42336 whole entry H1047R): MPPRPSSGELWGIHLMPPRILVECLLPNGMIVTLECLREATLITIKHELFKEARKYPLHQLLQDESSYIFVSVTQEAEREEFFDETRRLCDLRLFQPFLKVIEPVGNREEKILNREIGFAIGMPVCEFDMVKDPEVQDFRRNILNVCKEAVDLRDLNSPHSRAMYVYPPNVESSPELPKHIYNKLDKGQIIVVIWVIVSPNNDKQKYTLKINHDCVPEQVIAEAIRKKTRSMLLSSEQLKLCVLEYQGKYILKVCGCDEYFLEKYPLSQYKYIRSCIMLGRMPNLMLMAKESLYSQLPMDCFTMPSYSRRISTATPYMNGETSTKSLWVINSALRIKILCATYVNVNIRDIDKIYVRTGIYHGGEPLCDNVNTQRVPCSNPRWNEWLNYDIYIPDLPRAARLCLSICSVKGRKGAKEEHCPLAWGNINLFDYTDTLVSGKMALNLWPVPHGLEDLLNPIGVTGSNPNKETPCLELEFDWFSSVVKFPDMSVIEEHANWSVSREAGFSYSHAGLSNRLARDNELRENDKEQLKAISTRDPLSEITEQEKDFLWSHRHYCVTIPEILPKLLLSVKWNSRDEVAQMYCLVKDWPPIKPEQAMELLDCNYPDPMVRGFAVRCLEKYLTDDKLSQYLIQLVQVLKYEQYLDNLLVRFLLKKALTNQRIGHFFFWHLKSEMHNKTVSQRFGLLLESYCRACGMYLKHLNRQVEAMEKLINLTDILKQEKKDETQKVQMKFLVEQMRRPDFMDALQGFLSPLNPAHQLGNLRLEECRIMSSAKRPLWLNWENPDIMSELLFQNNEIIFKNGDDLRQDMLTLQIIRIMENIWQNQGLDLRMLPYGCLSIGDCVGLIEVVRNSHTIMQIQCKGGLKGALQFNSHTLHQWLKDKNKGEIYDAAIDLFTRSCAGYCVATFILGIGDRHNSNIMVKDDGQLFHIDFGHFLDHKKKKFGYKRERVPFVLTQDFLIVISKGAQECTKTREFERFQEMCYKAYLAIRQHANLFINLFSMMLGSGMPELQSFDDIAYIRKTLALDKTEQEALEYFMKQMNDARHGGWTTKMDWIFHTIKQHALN
# Sequence (P27986 whole entry partner): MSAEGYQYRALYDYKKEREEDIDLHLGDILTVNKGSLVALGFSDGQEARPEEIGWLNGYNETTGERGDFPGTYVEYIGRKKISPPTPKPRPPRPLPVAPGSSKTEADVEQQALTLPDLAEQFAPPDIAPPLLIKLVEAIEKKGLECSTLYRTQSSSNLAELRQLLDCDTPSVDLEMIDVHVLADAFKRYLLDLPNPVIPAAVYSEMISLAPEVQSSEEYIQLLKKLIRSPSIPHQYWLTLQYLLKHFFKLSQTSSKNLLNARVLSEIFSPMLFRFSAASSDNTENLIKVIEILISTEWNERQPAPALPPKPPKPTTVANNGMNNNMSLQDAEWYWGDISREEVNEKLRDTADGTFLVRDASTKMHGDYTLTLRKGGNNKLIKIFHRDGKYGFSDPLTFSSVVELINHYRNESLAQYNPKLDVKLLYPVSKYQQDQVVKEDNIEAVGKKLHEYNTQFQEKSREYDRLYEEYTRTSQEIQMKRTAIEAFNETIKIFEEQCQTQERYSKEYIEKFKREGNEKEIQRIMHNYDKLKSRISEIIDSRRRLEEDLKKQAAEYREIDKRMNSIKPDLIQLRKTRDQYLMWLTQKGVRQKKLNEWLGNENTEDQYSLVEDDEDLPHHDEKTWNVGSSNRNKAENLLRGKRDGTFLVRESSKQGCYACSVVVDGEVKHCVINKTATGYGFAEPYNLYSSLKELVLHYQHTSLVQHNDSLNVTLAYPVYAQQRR
# assay_remarks: ADP-Glo Biochemical PIK3CA Kinase Assay
measure: IC50

compound: N#CCc1cc(NC(=O)N2CC(O)(C(F)(F)F)c3cc(F)ccc32)c2c(c1)C(=O)NC2c1cc(F)ccc1Cl (mixture of isomers)
tested_on: H1047R PIK3CA enzyme (Homo sapiens, UniProt P42336, H1047R)
test_value: ≤ 0.1 µM

Provide IC50 values for the following items, in order.
1. O=C1NC(c2cc(F)ccc2Cl)c2c(NC(=O)C(Cl)c3ccccc3)cc(-c3ccc4ncnn4c3)cc21 (stereo not drawn)
2. O=C1NC(c2cc(F)ccc2Cl)c2c(NS(=O)(=O)N3CCc4ccccc43)cc(Br)cc21 (stereo not drawn)

1 to 10 µM
10 to 100 µM

* * *

# tested_on: H1047R PIK3CA enzyme (Homo sapiens, UniProt P42336, H1047R)
# assay_remarks: ADP-Glo Biochemical PIK3CA Kinase Assay
pIC50: −log10 of the molar value.
measure: pIC50

Below, 3 compounds whose answers are already recorded.
compound: O=C(Nc1cccc2c1C(CO)NC2=O)c1cc(F)cc(C(F)(F)F)c1 (stereo not shown)
tested_on: H1047R PIK3CA enzyme (Homo sapiens, UniProt P42336, H1047R)
measure: pIC50
test_value: 4.00 to 5.00
//
compound: Cc1ccccc1[C@@H]1NC(=O)c2nccc(NC(=O)N3CCc4ccc(F)cc43)c21
tested_on: H1047R PIK3CA enzyme (Homo sapiens, UniProt P42336, H1047R)
measure: pIC50
test_value: 6.30 to 7.00
//
compound: CC(C)(C#N)n1cc(-c2cc(NC(=O)N3C[C@](O)(C(F)(F)F)c4cc(F)ccc43)c3c(c2)C(=O)N[C@@H]3c2cc(F)ccc2Cl)cn1 (single isomer, unassigned)
tested_on: H1047R PIK3CA enzyme (Homo sapiens, UniProt P42336, H1047R)
measure: pIC50
test_value: 5.00 to 6.00

pIC50 lookup needed for O=C(Nc1cc(-c2ccnn2CC2CC2)cc2c1C(c1cc(F)ccc1Cl)NC2=O)c1cc(F)cc(C(F)(F)F)c1 (stereo not shown) , thanks. ≥ 7.00

* * *

For each of the compounds below, state its pIC50.
# tested_on: H1047R PIK3CA enzyme (Homo sapiens, UniProt P42336, H1047R)
# assay_remarks: ADP-Glo Biochemical PIK3CA Kinase Assay
pIC50: −log10 of the molar value.

compound: Cn1ccc2c(C(=O)Nc3cc(Br)cc4c3C(c3cc(F)ccc3Cl)NC4=O)cccc21 (stereo not drawn)
tested_on: H1047R PIK3CA enzyme (Homo sapiens, UniProt P42336, H1047R)
pIC50: 4.00 to 5.00
--
compound: COc1c(Cl)cc(F)cc1C(=O)Nc1cc(Br)cc2c1C(c1cc(F)ccc1Cl)NC2=O (stereo not drawn)
tested_on: H1047R PIK3CA enzyme (Homo sapiens, UniProt P42336, H1047R)
pIC50: 5.00 to 6.00

Provide pIC50 values for the following items, in order.
1. O=C(Nc1cc(C2CNC2)cc2c1C(c1cc(F)ccc1Cl)NC2=O)c1cc(F)cc(C(F)(F)F)c1 (stereo not drawn)
2. O=C1NC(c2cc(F)ccc2Cl)c2c(Nc3nccc4c(Cl)cc(F)cc34)cc(Br)cc21 (stereo not drawn)
3. Cc1ccccc1C1NC(=O)c2ccnc(NC(=O)c3nsc4ccccc34)c21 (stereo not drawn)
4. O=C(Nc1cc(N2CCc3cnccc32)cc2c1C(c1cc(F)ccc1Cl)NC2=O)c1cc(F)cc(C(F)(F)F)c1 (stereo not drawn)

≥ 7.00
6.30 to 7.00
5.00 to 6.00
≥ 7.00

* * *

# tested_on: H1047R PIK3CA enzyme (Homo sapiens, UniProt P42336, H1047R)
# assay_remarks: ADP-Glo Biochemical PIK3CA Kinase Assay
measure: IC50

Below, 4 compounds whose answers are already recorded.
compound: Cc1ccccc1C1NC(=O)c2cccc(NC(=O)c3nc(C)c4ccc(Cl)cn34)c21 (stereo not drawn) [Compound I-285]
IC50: 10 to 100 µM

compound: CNc1cc(NC(=O)N2C[C@@](O)(C(F)F)c3cc(F)ccc32)c2c(c1)C(=O)N[C@@H]2c1cc(F)ccc1Cl (single isomer, unassigned) [Compound I-2679]
IC50: 10 to 100 µM

compound: Nc1ccc(COc2cc(NC(=O)c3cc(F)cc(C(F)(F)F)c3)c3c(c2)C(=O)NC3c2cc(F)ccc2Cl)cn1 (stereo not drawn) [Compound I-1736]
IC50: ≤ 0.1 µM

compound: O=C1NC(c2cc(F)ccc2Cl)c2c(NC(=O)[C@@H]3CC[C@H](O)C3)cc(Br)cc21 (single isomer, unassigned) [Compound I-1975]
IC50: 10 to 100 µM

Provide IC50 values for the following items, in order.
1. Cc1ccccc1C1NC(=O)c2cccc(NC(=O)c3coc4ccc(F)cc34)c21 (stereo not drawn) [Compound I-19]
2. O=C(Nc1cccc2c1C(c1cc(F)ccc1Cl)NC2=O)c1cc(Cl)cc(C(F)(F)F)c1 (stereo not drawn) [Compound I-725]

1. 0.5 to 1 µM
2. 0.5 to 1 µM

* * *

# assay_remarks: cells
# reported_conditions: Homo sapiens, MCF-10A, read-out: MCF10A IC50
For each of the molecules below, state its IC50.

molecule: O=C1N[C@H](c2cc(F)ccc2Cl)c2c(NC(=O)N3C[C@](O)(C(F)(F)F)c4cc(F)ccc43)cc(C(F)F)cc21 (single isomer, unassigned)
test_value: < 1 µM

Provide IC50 values for the following items, in order.
1. O=C1N[C@@H](c2cc(F)ccc2Cl)c2c(NC(=O)N3C[C@@](O)(C(F)F)c4ccccc43)cccc21 (single isomer, unassigned)
2. O=C(Nc1cc(-c2cccc3nccn23)cc2c1C(c1cc(F)ccc1Cl)NC2=O)c1cc(F)cc(C(F)(F)F)c1 (stereo not shown)
3. O=C1N[C@H](c2cc(F)ccc2C(F)F)c2c(NC(=O)c3nsc4ccccc34)cccc21
4. CNC(=O)c1cc(NC(=O)c2nsc3ccccc23)c2c(c1)C(=O)N[C@@H]2c1ccccc1C
5. NCCc1cc(NC(=O)N2C[C@H](O)c3cc(F)ccc32)c2c(c1)C(=O)N[C@@H]2c1cc(F)ccc1Cl (single isomer, unassigned)

["< 1 µM", "< 1 µM", "1 to 5 µM", "10 to 36 µM", "10 to 36 µM"]

* * *

For each of the molecules below, state its IC50.
# assay_remarks: cells
# reported_conditions: Homo sapiens, MCF-10A, read-out: MCF10A IC50

Provide IC50 values for the following items, in order.
1. O=C1NC(c2cc(F)ccc2Cl)c2c(NC(=O)c3cc(F)cc4c(Cl)c[nH]c34)cccc21 (centres unmarked) [Compound I-1161]
2. COc1ccc(CNCc2cc(NC(=O)c3nsc4ccccc34)c3c(c2)C(=O)NC3c2cc(F)ccc2Cl)cc1 (centres unmarked) [Compound I-155]
3. N#Cc1ccc(-c2cc(NC(=O)c3cc(F)cc(C(F)(F)F)c3)c3c(c2)C(=O)N[C@@H]3c2cc(F)ccc2Cl)cn1 (single isomer, unassigned) [Compound I-1000]
4. CNC(=O)c1cc(NC(=O)c2csc3ccccc23)c2c(c1)C(=O)N[C@H]2c1ccccc1C [Compound I-76]
5. N#CN1CC(c2cc(NC(=O)c3cc(F)cc(C(F)(F)F)c3)c3c(c2)C(=O)NC3c2cc(F)ccc2Cl)C1 (centres unmarked) [Compound I-1157]
6. O=C1N[C@@H](c2cc(F)ccc2Cl)c2c(NC(=O)N3C[C@H](O)c4c(F)cccc43)cccc21 (single isomer, unassigned) [Compound I-2142]

1 to 5 µM
1 to 5 µM
< 1 µM
< 1 µM
5 to 10 µM
< 1 µM

Provide IC50 values for the following items, in order.
1. O=C(Nc1cc(-c2cncnc2)cc2c1[C@H](c1cc(F)ccc1Cl)NC2=O)c1cc(F)cc(C(F)(F)F)c1 [Compound I-1095]
2. O=C(Nc1cc(Br)cc2c1[C@H](c1cc(F)ccc1Cl)NC2=O)c1cc(F)cc(C(F)(F)F)c1 [Compound I-388]

["< 1 µM", "< 1 µM"]

* * *

# tested_on: H1047R PIK3CA enzyme (Homo sapiens, UniProt P42336, H1047R)
# assay_remarks: ADP-Glo Biochemical PIK3CA Kinase Assay
For each of the compounds below, state its IC50.

Below, 2 compounds whose answers are already recorded.
compound: COc1cc(F)cc(C(=O)Nc2cc(Br)cc3c2C(c2cc(F)ccc2Cl)NC3=O)c1 (centres unmarked)
tested_on: H1047R PIK3CA enzyme (Homo sapiens, UniProt P42336, H1047R)
IC50: 500 to 1000 nM

compound: O=C1NC(c2ccccc2Cl)c2c(NC(=O)c3cc(F)cc(C(F)(F)F)c3)cccc2O1 (centres unmarked)
tested_on: H1047R PIK3CA enzyme (Homo sapiens, UniProt P42336, H1047R)
IC50: 500 to 1000 nM

Provide IC50 values for the following items, in order.
1. CN1CCN(c2cc(NC(=O)c3cc(F)cc(C(F)(F)F)c3)c3c(c2)C(=O)NC3c2cc(F)ccc2Cl)CC1=O (centres unmarked)
2. O=C1NC(c2cc(F)ccc2Cl)c2c(Nc3nn(C4CC4)c4ccccc34)cc(-c3ccc4ncnn4c3)cc21 (centres unmarked)
3. O=C1NC(c2cc(F)ccc2Cl)c2c(NCC3CCCCC3)cc(Br)cc21 (centres unmarked)

≤ 100 nM
1000 to 10000 nM
10000 to 100000 nM
